Tested on: Trypanosoma cruzi
PROTOCOL_TEXT: Trypanosoma cruzi phosphomannomutase and mannose-1-phosphate guanylyltransferase assay
Type: functional
Set-up: scale not given: direction of the effect not stated beside the values
SETTINGS: 10 µM
What Percent Effect was measured for each of the following?
In your response, the unit should come after the numeric value.

See these solved cases before continuing.
CN1CC(=O)N(c2cnn(C)c2)CC12CCN(Cc1ccccc1)C2 (centres undefined) = 10.3%
CCc1n[nH]c(C2CN(C(=O)Cn3ccccc3=O)CCO2)n1 (centres undefined) = 0.718%
CSc1nccn1-c1cccc(C(=O)NCCCN2CCOCC2)c1 = 1.21%

Go through the items and report each one's Percent Effect.
1. CC(=O)c1cn(CC(=O)NC(C(=O)O)C(C)C)c2ccccc12 (centres undefined)
2. O=C(CCC1CCCC1)NCCn1nc(C2CCNC2)c2cccnc21 (centres undefined)
3. CCn1cc(CN2CCCN(C(=O)CCCn3cncn3)CC2)cn1

Result:
["-3.99%", "4.53%", "5.43%"]

Go through the items and report each one's Percent Effect.
1. c1csc(-c2nc(CN3CCCC3Cn3cncn3)co2)c1 (centres undefined)
2. CC(C)Oc1ncccc1CNC(=O)N1CCC1c1ccccc1 (centres undefined)
3. CCc1ccc(CN2C[C@@H]3OCCN(c4ccnc(N(C)C)n4)[C@@H]3C2)o1
4. O=C(c1cccn1Cc1cccs1)N1CCN(C2CC2)CC1
5. CC[C@@]1(O)CCN(C(=O)c2ccc(-c3cccc(F)c3)cc2)C[C@H]1O
6. CN(C)C(=O)c1ccc(CNC(=O)NCCN(C)C2CCCC2)cc1
7. O=C1CC(c2cccnc2)c2c(c(C(=O)O)cn2-c2ccccc2)N1 (centres undefined)
8. Cc1cnn(CCNCc2csc(-c3ccc4c(c3)OCO4)n2)c1

Result:
1: 6.86%; 2: 11.3%; 3: 1.98%; 4: 8.05%; 5: -3.6%; 6: -3.87%; 7: -3.14%; 8: -5.83%

Go through the items and report each one's Percent Effect.
1. COc1ccc(NC(C)C(=O)NCCc2cccs2)cc1F (centres undefined)
2. O=C(NCc1ccccc1F)N1CCC(C2OCCO2)CC1
3. Cc1ccccc1C(=O)NCc1ccc(N2CCNC(=O)C2)cc1
4. CCN(Cc1nc2c(cnn2C)c(=O)[nH]1)c1cccc(F)c1

Result:
-3.92%
-5.94%
1.16%
-2.36%

Go through the items and report each one's Percent Effect.
1. CC(C)NC(=O)[C@@H]1C[C@H](N)CN1C(=O)c1cc2c([nH]c1=O)CCCC2
2. Cc1csc(NC(=O)CN(C)CC2CCCN2c2cccnn2)n1 (centres undefined)
3. CC(C)N(CC(N)=O)Cc1csc(Cc2ccccc2)n1
4. CN(C)CCNC(=O)CNC(=O)N1CCc2c([nH]c3ccc(Cl)cc23)C1
5. Cc1cnc(NC(=O)c2ccc(-n3ncc(C#N)c3N)cc2)s1
6. CC(=O)N1CCCCC1c1nc(N)ncc1-c1ccccc1 (centres undefined)

Result:
1. -1.46%
2. -6.05%
3. -6.7%
4. -2.55%
5. -6.33%
6. 5.32%

###

TGT: Protein translocase subunit SecA (Escherichia coli (strain K12)) (UniProt P10408)
Sequence (P10408 whole entry): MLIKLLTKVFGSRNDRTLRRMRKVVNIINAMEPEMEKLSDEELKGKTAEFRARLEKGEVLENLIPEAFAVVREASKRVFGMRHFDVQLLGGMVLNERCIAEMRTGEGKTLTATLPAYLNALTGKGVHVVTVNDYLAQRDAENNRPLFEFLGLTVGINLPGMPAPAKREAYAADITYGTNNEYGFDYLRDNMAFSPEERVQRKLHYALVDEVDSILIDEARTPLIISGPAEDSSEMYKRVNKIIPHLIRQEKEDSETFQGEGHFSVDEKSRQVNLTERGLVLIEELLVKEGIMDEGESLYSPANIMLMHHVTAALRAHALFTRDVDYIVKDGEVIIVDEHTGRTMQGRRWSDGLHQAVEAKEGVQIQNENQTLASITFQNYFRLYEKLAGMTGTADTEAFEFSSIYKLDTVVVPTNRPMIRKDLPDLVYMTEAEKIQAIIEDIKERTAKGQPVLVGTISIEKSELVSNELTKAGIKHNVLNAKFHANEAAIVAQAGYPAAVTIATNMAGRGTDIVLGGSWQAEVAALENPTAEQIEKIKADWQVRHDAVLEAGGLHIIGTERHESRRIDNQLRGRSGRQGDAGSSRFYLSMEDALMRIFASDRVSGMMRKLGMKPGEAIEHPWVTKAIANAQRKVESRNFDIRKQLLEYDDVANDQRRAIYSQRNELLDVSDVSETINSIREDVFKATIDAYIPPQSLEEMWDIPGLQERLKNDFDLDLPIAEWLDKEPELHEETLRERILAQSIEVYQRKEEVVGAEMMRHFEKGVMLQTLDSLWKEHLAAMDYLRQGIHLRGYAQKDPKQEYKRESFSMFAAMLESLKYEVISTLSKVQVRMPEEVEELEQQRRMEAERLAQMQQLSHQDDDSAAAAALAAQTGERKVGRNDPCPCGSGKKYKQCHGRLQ
PROTOCOL_TEXT: Assay to Identify E. coli SecA ATPase Inhibitors
Type: functional
Design: scale not given: direction of the effect not stated beside the values
SETTINGS: 30 µM
Measured potencies and affinities stand elsewhere.
What Percent Effect was measured for each of the following?
Answers are plain numbers, in %.

See these solved cases before continuing.
Cc1cccc(C2(C(=O)NCCCn3cccn3)CC2)c1 = -2.92
c1cc(OCc2ccc3c(c2)OCO3)ccc1CNC1CC1 = 7.84
CN(C)C(=O)CSc1nnc(CCNC(=O)OC(C)(C)C)o1 = -1.89
CC(=O)Nc1nc(CN2CCOC(Cn3cc(C)cn3)C2)cs1 (stereo unspecified) = -2.79
c1ccc(-c2nc(CNC3CCc4ncnn4C3)co2)cc1 (stereo unspecified) = -6.67

// moving on: another record for Percent Effect
Q: Item: "COCCN1C(=O)[C@]2(CC[C@@H]3CN(C(=O)NC4CCCC4)C[C@@H]32)N=C1C" Test system: Protein translocase subunit SecA (Escherichia coli (strain K12)) (UniProt P10408) Read-out: Percent Effect Value: ?
Result: -2.35

###

TGT: Chromo domain-containing protein 1 (Saccharomyces cerevisiae (strain ATCC 204508 / S288c) (Baker's yeast)) (UniProt P32657)
Sequence (P32657 whole entry, the tested form may be a part): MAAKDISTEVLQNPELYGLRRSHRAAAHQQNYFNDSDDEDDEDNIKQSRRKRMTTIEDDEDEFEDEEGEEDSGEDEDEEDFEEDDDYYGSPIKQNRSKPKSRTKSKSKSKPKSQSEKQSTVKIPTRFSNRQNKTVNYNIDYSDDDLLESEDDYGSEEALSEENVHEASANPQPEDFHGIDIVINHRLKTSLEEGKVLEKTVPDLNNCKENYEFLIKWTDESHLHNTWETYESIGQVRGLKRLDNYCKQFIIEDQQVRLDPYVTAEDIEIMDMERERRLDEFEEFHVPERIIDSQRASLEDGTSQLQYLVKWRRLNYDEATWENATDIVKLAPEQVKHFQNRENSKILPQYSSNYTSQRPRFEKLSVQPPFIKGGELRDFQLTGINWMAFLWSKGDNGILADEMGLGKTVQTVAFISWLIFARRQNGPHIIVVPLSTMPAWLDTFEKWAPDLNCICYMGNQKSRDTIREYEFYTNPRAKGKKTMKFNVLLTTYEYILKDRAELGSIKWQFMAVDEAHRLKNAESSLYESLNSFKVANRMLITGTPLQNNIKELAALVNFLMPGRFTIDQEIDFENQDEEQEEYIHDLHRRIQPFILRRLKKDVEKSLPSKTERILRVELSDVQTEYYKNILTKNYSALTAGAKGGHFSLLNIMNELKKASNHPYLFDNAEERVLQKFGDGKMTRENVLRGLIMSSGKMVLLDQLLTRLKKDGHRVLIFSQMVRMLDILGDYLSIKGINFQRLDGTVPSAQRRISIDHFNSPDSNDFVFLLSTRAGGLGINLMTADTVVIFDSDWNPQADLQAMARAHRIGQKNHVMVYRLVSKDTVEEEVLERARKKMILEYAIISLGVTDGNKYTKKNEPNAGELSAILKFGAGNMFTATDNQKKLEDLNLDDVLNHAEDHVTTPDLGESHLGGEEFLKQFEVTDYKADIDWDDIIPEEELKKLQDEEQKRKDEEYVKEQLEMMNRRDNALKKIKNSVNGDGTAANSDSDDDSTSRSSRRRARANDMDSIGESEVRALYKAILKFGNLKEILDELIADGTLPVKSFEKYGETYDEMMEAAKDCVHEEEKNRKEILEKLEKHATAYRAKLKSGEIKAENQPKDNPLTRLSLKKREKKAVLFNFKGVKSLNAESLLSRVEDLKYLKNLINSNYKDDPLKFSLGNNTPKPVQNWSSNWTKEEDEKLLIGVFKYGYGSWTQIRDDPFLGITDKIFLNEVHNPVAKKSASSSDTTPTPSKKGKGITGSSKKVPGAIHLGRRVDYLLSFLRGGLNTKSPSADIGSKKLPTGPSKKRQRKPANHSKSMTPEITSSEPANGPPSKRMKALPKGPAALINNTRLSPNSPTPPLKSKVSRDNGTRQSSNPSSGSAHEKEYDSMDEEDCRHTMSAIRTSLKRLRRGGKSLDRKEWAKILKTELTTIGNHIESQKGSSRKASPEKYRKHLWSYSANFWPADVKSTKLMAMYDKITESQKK
PROTOCOL_TEXT: ScCHD-1 Enzyme Inhibition Assay; further: in the data most compounds retested in dose-response had high values
Format: functional
Design: scale not given: direction of the effect not stated beside the values
SETTINGS: 30 µM
METRIC: Percent Effect

See these solved cases before continuing.
Cc1noc(C(C)N2CCN(CC(=O)N3CCOCC3)CC2)n1 (configuration not stated) = -15.2%
CCn1cnnc1C1CCN(C(=O)c2cnc(C3CC3)s2)CC1 = -4.8%
Cc1nc(C)n(C2CCCN(C(=O)c3csnn3)C2)n1 (configuration not stated) = -4.56%
Cc1nc(CCCNC(=O)C2CC(=O)N(C(C)(C)C)C2)sc1C (configuration not stated) = -5.51%
CC(C)N(C)Cc1cnc2n1CCN(CCc1ccccc1)C2 = 0.182%

Go through the items and report each one's Percent Effect.
1. COc1ccc2nnc(CCCC(=O)NCc3cccn3C)n2n1
2. Cn1ccnc1CC1CCCN(C(=O)Nc2cccn(C)c2=O)C1 (configuration not stated)

Result:
1. -12%
2. -5.06%

Go through the items and report each one's Percent Effect.
1. Cn1cccc1C(=O)N[C@@H]1CN(CC2CC2)[C@@H]2COC[C@@H]21
2. CCn1c(C)nnc1CN(C)C1CCN(CCc2ccncc2)C1 (configuration not stated)
3. COc1ncccc1NC(=O)N1CCC(CNC(C)=O)CC1

Result:
1. -7.28%
2. -19.1%
3. -8%

Go through the items and report each one's Percent Effect.
1. CC(NC(=O)CCOc1ccccc1Cl)c1nnc2n1CCC2 (configuration not stated)
2. Cn1c(CN2CCOC(c3nc(C(C)(C)C)n[nH]3)C2)nnc1C1CC1 (configuration not stated)

Result:
-6.83%
-22.6%

###

TGT: Arginase-2, mitochondrial (Homo sapiens)
PROTOCOL_TEXT: in vitro enzyme assay to detect the production of urea directly proportional to the activity of Arginase II; further: in the data most compounds retested in dose-response had high values
Format: functional
Design: scale not given: direction of the effect not stated beside the values
SETTINGS: 33.3 µM
METRIC: Percent Effect (%)
Answers are plain numbers, in %.

Go through the items and report each one's Percent Effect.
1. O=S1(=O)c2ccccc2C2(CCN(Cc3ccccc3)C2)N1CC1CC1 (centres undefined)
2. CS(=O)(=O)NCCCN1CCCC1c1ccccc1 (centres undefined)

Result:
1. 2.1
2. 3.04

###

TGT: Protein translocase subunit SecA (Escherichia coli (strain K12)) (UniProt P10408)
PROTOCOL_TEXT: Assay to Identify E. coli SecA ATPase Inhibitors
Type: functional
Set-up: scale not given: direction of the effect not stated beside the values
SETTINGS: 30 µM
Entries with a potency or affinity are not part of this list.
METRIC: Percent Effect (%)
Give bare numbers, in %.

See these solved cases before continuing.
CCC(CNC(=O)Nc1cnn(CC)c1)N1CCCC1 (stereo unspecified) = 0.765
CCc1noc(CN(C)Cc2ccc(N3CCCCC3)cc2)n1 = -2.48
Cc1nn(C)c(C)c1CC(=O)N1CCCC(n2cccn2)C1 (stereo unspecified) = -2.93
CC(C)n1ccnc1CN1CCCN(C(=O)CC2C=CCC2)CC1 (stereo unspecified) = -5.72
c1ccc(CN2CCCC2Cn2cncn2)nc1 (stereo unspecified) = -2.52

Q: Entry under review: "CC(C)c1noc(CCCC(=O)N2CCN(Cc3ccncc3)CC2)n1" . Reported Percent Effect?
Result: -2.42

###

TGT: AMP-activated protein kinase, AMPK (Homo sapiens) (UniProt P54646+O43741+P54619+Q9UGJ0+Q9Y478+Q13131+Q9UGI9)
PROTOCOL_TEXT: AMP-dependent Kinase enzyme assay. An in vitro enzyme assay that detects ADP turnover that is directly proportional to AMPK activity. This uses naive AMPK that is activated during the assay with MK-8722
Assay type: functional
Set-up: scale not given: direction of the effect not stated beside the values
SETTINGS: 30 µM
METRIC: Percent Effect (%)
Answers are plain numbers, in %.

See these solved cases before continuing.
CC(C(=O)NCc1ccnc(Oc2ccc(F)cc2)c1)n1cncn1 (configuration not stated) = -1.15
O=c1cc2c(nn1CN1CCN(c3cccc(Cl)c3)CC1)CCC2 = 0.948
COc1ccc(CN2C[C@@H](OCc3ccccn3)[C@H]3COC[C@H]32)cc1 = -0.636
CC(=O)NCCN1CCC(c2cccs2)CC1 = 4.81
CCO[C@H]1CO[C@@]2(CCCN(Cc3nc(C)cs3)C2)C1 = -4.62
CC(NC(=O)c1cc(-c2cccc(Cl)c2)no1)C(=O)N1CCCC1 (configuration not stated) = 16.6
O=C(NCc1cccnc1-n1cccn1)C1CC(=O)N(CC2CC2)C1 (configuration not stated) = 12.9
CC(CNC(=O)Nc1cn[nH]c1)N1CCOCC1 (configuration not stated) = 1.69

Go through the items and report each one's Percent Effect.
1. Cc1nc2ccccc2nc1CN(C)CC1CCCN1c1cccnn1 (configuration not stated)
2. Cc1ccsc1CN(CCN(C)C)Cc1ccccn1
3. Cc1cc(C(=O)N2CCCC2Cn2nc(C)cc2C)on1 (configuration not stated)
4. COc1ccc(C2(NC(=O)CCn3cncn3)CCCCC2)cc1
5. Cc1cccc(C(=O)NCCCN2CCN(c3ccccc3)CC2)c1
6. Cn1ncc2c1CCCC2NCc1cnc(-c2ccccc2)nc1 (configuration not stated)

Result:
1: 0.00702; 2: -16.2; 3: -7.13; 4: 4.65; 5: -2.04; 6: -13.8

Reference for the values: ChEMBL document CHEMBL3988442
